biological target: T1, JCV major capsid protein VP1, wild type (John Cunningham virus (JCV), UniProt P03089 1-354); experiment: ELISA, plates coated with pseudovirus, purified antibody
T1 construct: also called WT VP1; wild type VP1
measurement-type: EC50 (µg/mL)
Give bare numbers, in µg/mL.

These recorded examples may help you get a feel for the data.
3D2 (antibody, V domains shown) VH: QVQLQQWGAGLLKPSETLSLTCAVFGGSFSSYYWSWIRHPPGKGLEWIGDINHSGSTNYNPSLKSRVTLSVDTSKNQFSLKVTSVTAADTAVYYCARWGIAADYGMDVWGQGTTVTVSS VL: EIVLTQSPGTLSLSPGERATLSCRASQSVSSSYLAWYQQKPGQAPRLLIYGASSRATGIPDRFSDSGSGTDFTLTISRLEPEDFALYYCQQYGTSPWTFGQGTKVEIK :: 0.393
1H10 (antibody, V domains shown) VH: EVQLLESGGGLVQPGGSLRLSCAASGFTLSTYAMSWVRQAPGKGLEWVSAISGTGLSTYYADSLKGRFTISRDISKNTLYLQMSSLKAEDTAVYYCAKGLELFYFYYGMDVWGQGTTVTVSS VL: EIVLTQSPGTLSLSPGERATLSCRASQSVSSTYLAWYQQKPGQAPRLLIYGTSSRATGIPDRFSGSGSGTDFTLTISRLEPEDLAVYYCQQYGRSLIFGQGTRLEIK :: 0.0193
1E8 (antibody, V domains shown) VH: QVQLVESGGGLVKPGGSLRLSCAASGFTFSDHYMSWIRQAPGKGLEWVSYISTSGSTIYYADSVKGRFTISRDNAKNSLYLQMNSLRAEDTAVYYCASDYYDNSGWNYWGQGTLVTVSS VL: DVVMTQSPLSLPVTLGQPASISCRSSQSLVYSDGNTYLNWFQQRPGQSPRRLIYKVSDRDSGVPDRFSGSGSGTDFTLRISRVEAEDVGVYYCMQGSHWPRTFGQGTKVEIK :: 0.008

Here is the next item to consider.
Request: Looking for the measured EC50 of 1A3 (antibody, V domains shown) VH: QVQLVESGGGLVKPGGSLRLSCAASEITFSDYYMSWIRQAPGKGLEWISYISTSGRTIYFADSVKGRFTISRDNAKNSLYLQMNSLRADDTAVYYCASDFYDNSGWEYWGQGTLVTVSS VL: DVVMTQSPLSLSVTLGQPASISCRSSQSLVYSDGNTYLNWFQQRPGQSPRRLIYKVSDRDSGVPDRFSGSGSGTDFTLKISRAEAEDVGVYYCMQGTHWPRTFGQGTKVEIK , can you help?
Response: 0.0071
